Molecular target: Replicase polyprotein 1ab (Severe acute respiratory syndrome coronavirus) (UniProt P0C6X7)
Assay: blockers of SARS 3CLpro peptide cleavage – biochemical, quenched FRET, primary screen (AID 1706)
Settings: recombinant SARS-CoV 3CLpro, at 6 µM, hits give high values
About 400 (0.14%) of roughly 290,000 compounds were called active. Shown is part of a subset that was picked to be rich in actives.
Measure Name: inhibition (%)

In [3]: df
Out[3]:
                                    compound  measure_name  units_of_measure  recorded_result
 0  COCCNC(=O)C(c1ccc(C)o1)N(Cc1ccccc1)C(=O)Cn1nnc2ccccc21 (configuration not stated)    inhibition                 %             0.75
 1  CN(C)Cc1c(C(=O)N/N=C/c2ccccc2OCc2ccc(F)cc2)nnn1-c1nonc1N    inhibition                 %              0.8
 2  C=C(C)COc1ccc(-c2n[nH]c(C)c2-c2ccccc2OC)c(O)c1    inhibition                 %             11.1
 3  Cc1ccnc(NS(=O)(=O)c2ccc(NC(=O)c3oc4ccccc4c3C)cc2)n1    inhibition                 %            -4.86
 4  Cc1ccc2c(c1)sc1ncc(NC(=O)c3ccccc3)c(=O)n12    inhibition                 %            -0.46
 5  Cc1ccc(NS(=O)(=O)c2ccc3c(c2)oc(=O)n3C)c(C)c1    inhibition                 %             8.19
 6  Cc1cc(C)nc(NS(=O)(=O)c2ccc(N/C=C\C(=O)c3cccs3)cc2)n1    inhibition                 %             6.43
 7               CSc1ncccc1C(=O)NCc1ccccc1Cl    inhibition                 %             0.88
 8           CCCc1nnc(NC(=O)CCC(=O)NC2CC2)s1    inhibition                 %            -2.59
 9  C=C(C)COc1ccc(-c2n[nH]c(C)c2-c2ccccc2)c(O)c1    inhibition                 %             14.1
10  COc1ccccc1CNC(=O)C1CCN(S(=O)(=O)c2ccc3c(c2)OCCO3)CC1    inhibition                 %             0.14
11  CCC(C)(C)NC(=O)CN(C(=O)CCC(=O)Nc1nccs1)c1ccc2c(c1)OCO2    inhibition                 %            -3.34
12  Cn1nc(-c2ccc(N3CCOCC3)c(NC(=O)c3ccccc3)c2)c2ccccc2c1=O    inhibition                 %               -4
13  CCn1c(/C=C/Nc2ccccc2)[n+](CC)c2ccc(C(=O)OCC(F)(F)F)cc21    inhibition                 %            -5.62
14  CC(=O)N1CCN(C(=O)C2(NC(=O)Nc3ccc(C)cc3)CCCCC2)CC1    inhibition                 %            -11.2
15      c1ccc2c(-c3nn4nnnc4c4ccccc34)cccc2c1    inhibition                 %            -0.16
16  COc1ccc(CNC(=O)c2cc(=O)c3c(C)cc(C)cc3o2)cc1    inhibition                 %             6.16
17  CCN1CCN(C(=O)Cn2nc(C)n3c(cc4c(OC)cccc43)c2=O)CC1    inhibition                 %            -4.38
18  COc1ccc(C(C(=O)NCC2CCCO2)N(C(=O)Cn2nnc3ccccc32)c2ccc(NC(C)=O)cc2)cc1OC (configuration not stated)    inhibition                 %             11.5
19     CC(C)Nc1ccc(-n2nc3ccccc3[n+]2[O-])cc1    inhibition                 %             -2.9
20  O=C1C(=O)N(CC2COc3ccccc3O2)c2ccccc21 (configuration not stated)    inhibition                 %             23.4
21  CCNS(=O)(=O)c1ccc(CCC(=O)N2CCN(c3cc(Cl)ccc3C)CC2)cc1    inhibition                 %             0.81
22            O=Cc1cn(Cc2ccccc2)nc1-c1cccnc1    inhibition                 %             39.5
23  O=C(Cc1ccccc1F)NC1CCSc2ccccc21 (configuration not stated)    inhibition                 %             -4.7
24  CC(Oc1ccccc1)C(=O)Nc1c2c(nn1-c1ccccc1)CS(=O)C2 (configuration not stated)    inhibition                 %            -1.62
25      Clc1ccc(Cc2nn3c(-c4ccncc4)nnc3s2)cc1    inhibition                 %             2.77
26  CCOC(=O)CN(Cc1ccc(OC)c(OC)c1)S(=O)(=O)c1ccc(OC)cc1    inhibition                 %             4.93
27  COc1ccc(C(CNC(=O)c2cc3c(s2)CCCC3)N2CCOCC2)cc1 (configuration not stated)    inhibition                 %             0.58
28  COc1ccc([N+](=O)[O-])cc1NCC(=O)c1ccc(C)cc1    inhibition                 %            -0.37
29            CC(=O)c1cc(C#N)c(N2CCCCC2)nc1C    inhibition                 %             5.03
30        O=c1cc(-c2ccccc2)nc(N2CCCCC2)[nH]1    inhibition                 %             3.63
31  O=C(Nc1ccc(S(=O)(=O)N2CCCCC2)cc1)C1CC(=O)N(c2ccc(F)cc2)C1 (configuration not stated)    inhibition                 %             1.61
